- Tested on: CEM cells HIV-1 protection, formazan growth assay
- assayProcedure: NCI AIDS Antiviral Assay
- reportedConditions: measured here: growth of uninfected CEM cells
metricName: IC50 (µM)
Record the value in µM, omitting the unit from your answer.

CC(CN(C)C)OC(=O)c1cc2ccccc2n1Cc1ccccc1 (configuration not stated) | 87.1

Prompt: Item under review: Oc1ccc(Cc2nccc3cc(O)c(O)cc23)cc1O . Reported IC50?
Response: 29.5

Prompt: Item under review: O=C(CC(=O)C(=O)CC(=O)OCc1ccccc1)OCc1ccccc1 . Reported IC50?
Response: 89.1

Prompt: Item under review: CCOC(=O)CCNC(=O)c1ccccc1SC(=O)CCCC[n+]1ccccc1 . Reported IC50?
Response: 1.51

Prompt: Item under review: Cc1c(/C=N/N(C)C)oc2c1cc(O)c1ncccc12 . Reported IC50?
Response: 2.51

Prompt: Item under review: COc1ccccc1/C=C/c1nc2ccccc2o1 . Reported IC50?
Response: 107

Prompt: Item under review: CCOC(=O)CN(c1scc(-c2ccccc2)c1C(=O)OCC)S(=O)(=O)c1ccc(C)cc1 . Reported IC50?
Response: 9.33

Prompt: Item under review: O=c1ccc2cc3ccoc3c(OCCCCCCBr)c2o1 . Reported IC50?
Response: 30.9

###

- System: CEM cells HIV-1 protection, formazan growth assay
- assayProcedure: NCI AIDS Antiviral Assay;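 active = compounds giving half or more protection of infected cells from virus-caused growth loss, again on retest; inactive = the rest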
Mark one answer only. Choices: Y for active, N for inactive

Example cases with answers are listed next.
Cc1ccc(S(=O)(=O)NCCN(CCNS(=O)(=O)c2ccc(C)cc2)S(=O)(=O)c2ccc(C)cc2)cc1 | N
CCN(CC)CCn1c2cc3c(cc2c(=O)c2cccnc21)OCO3 | N
Cc1cc2c(cc1C)[n+]([O-])c(NCCCN(C)C)c(C#N)[n+]2[O-] | N

Prompt: Call for entry Cc1ccc(SSc2ccc([N+](=O)[O-])cc2)cc1 :
Response: N

Prompt: Call for entry COC(=O)[C@H](Cc1ccccc1)NP(=O)(O)OCC1C=CC(n2cc(C)c(=O)[nH]c2=O)O1 (stereo partly drawn) :
Response: Y

Prompt: Call for entry COC(=O)c1ccccc1COC(=O)c1cc(C(=CCC[C@H]2CC[C@@]3(C)[C@@H](CC[C@@H]4[C@@H]3CC[C@]3(C)[C@@H](C(C)CCCC(C)C)CC[C@@H]43)C2)c2cc(Cl)c(OCc3ccccc3C(=O)OC)c(C(=O)OCc3ccccc3C(=O)OC)c2)cc(Cl)c1OCc1ccccc1C(=O)OC (stereo partly drawn) :
Response: N

Prompt: Call for entry COc1ccccc1N1C(=O)C2C3c4ccccc4C(OC(C)=O)(c4ccccc43)C2C1=O (stereo not drawn) :
Response: N

Prompt: Call for entry CCC(=S)N(C)O :
Response: N

###

- System: CEM cells HIV-1 protection, formazan growth assay
- assayProcedure: NCI AIDS Antiviral Assay
- reportedConditions: measured here: growth of uninfected CEM cells
metricName: IC50

O=C(O)C1CCC(c2ccc(Oc3ccccc3)cc2)N1 (stereo not drawn) | > 200 µM
Cc1ccc(C(=O)Nc2ccc(S(=O)(=O)O)c3cc(S(=O)(=O)O)cc(S(=O)(=O)O)c23)cc1NC(=O)c1cccc(NC(=S)Nc2cccc(C(=O)Nc3cc(C(=O)Nc4ccc(S(=O)(=O)O)c5cc(S(=O)(=O)O)cc(S(=O)(=O)O)c45)ccc3C)c2)c1 | 537 µM
CN1CCN=C1c1ccc(NC(=O)Nc2ccc(NC(=O)Nc3ccc(C4=NCCN4C)cc3)cc2)cc1 | 38.9 µM

Prompt: Item under review: CC(=O)OCC1OC(N2C(=S)N[C@H]([C@@H](O)[C@H](O)[C@H](O)CO)[C@H]2O)C(OC(C)=O)C(OC(C)=O)C1OC(C)=O (stereo partly drawn) . Reported IC50?
Response: > 200 µM

Prompt: Item under review: NC(CCCCCP(=O)(c1ccccc1)C1C=CC=CC1)C(=O)O (stereo not drawn) . Reported IC50?
Response: > 200 µM

Prompt: Item under review: Cc1ccc(/C=N/Nc2ccc3ccccc3n2)s1 . Reported IC50?
Response: 21.4 µM

Prompt: Item under review: COc1ccc(/C(=N/Nc2nc3ccccc3[nH]2)C(=O)O)cc1 . Reported IC50?
Response: > 200 µM

Prompt: Item under review: COc1c(C)c2c(c(C)c1Cl)Oc1c(C=O)c(O)c(Cl)c(C)c1C(=O)O2 . Reported IC50?
Response: > 18.2 µM

###

Property: pIC50; scope: individual molecules
- Test system: CEM cells HIV-1 protection, formazan growth assay
- assayProcedure: NCI AIDS Antiviral Assay
- reportedConditions: measured here: growth of uninfected CEM cells
pIC50: −log10 of the molar value. *1 amine or outer side, *2 acyl side, *3 side chain or, on linkers, in order; H or OH if unused. Where a SMILES comes first, the peptide text is derived from it. Bridges are numbered along the chain shown (N, C = ends). [ ]: non-standard residue; d: D form. The star is where a group is joined. ξ: configuration not given here. Fmoc = O=C(OCC1c2ccccc2-c2ccccc21)*; X2 = O=C(C(CCCCNO[*:3])N[*:1])[*:2]; ξW = NC(Cc1c[nH]c2ccccc12)C(=O)O; ξP = O=C(O)C1CCCN1

CC(=O)Oc1ccc(OC(Oc2ccccc2)c2ccccc2)cc1 (stereo unspecified) | 4.22
CCCCCCCCCCCC(=O)OCC1OC(n2cc(F)c(=O)[nH]c2=O)C(N)C(OC(=O)CCCCCCCCCCC)C1O (stereo unspecified) | < 5.52
N#Cc1c2c(c(N=[N+]=[N-])n3c1nc1ccccc13)CCCC2 | < 5.33
NC(=O)CNC(=O)C1CCCN1C(=O)C1CCCCNOC(=O)CC[C@@H](NC(=O)OCC2c3ccccc3-c3ccccc32)C(=O)NC(Cc2c[nH]c3ccccc23)C(=O)N1 (stereo partly specified) (Fmoc-[dE][ξW][X2][ξP]G-NH2; ester 1-3) | < 4.00
Cn1c(=O)c2c(=O)c(=O)[nH][nH]c2n(C)c1=O | < 3.70
CCOC(=O)C(NCc1ccc2c(c1)OCO2)(NC(=O)c1ccccc1)C(F)(F)F (stereo unspecified) | 4.52
O=C1C2=C(c3ccccc31)C(c1ccccc1)N1C(=O)CSC1=N2 (stereo unspecified) | 4.46
CS/C(c1ccccc1)=[N+](\[O-])Cc1ccccc1 | 3.34

Prompt: Item under review: CCN(CC)Cc1ccccc1CC(=O)N1c2ccccc2C(=O)Nc2cccnc21 . Reported pIC50?
Response: < 3.70

Prompt: Item under review: COc1cc(-c2ccc(Nc3ccccc3C(=O)O)c(OC)c2)ccc1Nc1ccccc1C(=O)O . Reported pIC50?
Response: 6.16

Prompt: Item under review: CCOc1ccc(/C=C(\Cl)c2ccc(OC)cc2)cc1 . Reported pIC50?
Response: < 3.70

Prompt: Item under review: Cn1c(=O)cc2[nH]c3ccccc3n2c1=O . Reported pIC50?
Response: < 4.20

Prompt: Item under review: CC(C)C1CNC(=O)C2(C=NC(C(C)C)CNC(=O)C3(C=N1)CCCO3)CCCO2 (stereo unspecified) . Reported pIC50?
Response: < 4.91

Prompt: Item under review: COC(=O)Cc1ccc2c(c1)Sc1ccc(CC(=O)OC)cc1N2C . Reported pIC50?
Response: 5.35

Prompt: Item under review: O=C(N/N=C\c1cccnc1)c1ccncc1 . Reported pIC50?
Response: < 3.70

Prompt: Item under review: Cc1ccc2nsnc2c1[N+](=O)[O-] . Reported pIC50?
Response: < 3.59

Prompt: Item under review: COc1ccccc1N=NC(C(=O)c1ccccc1)C(=O)c1ccccc1 . Reported pIC50?
Response: 6.29

Prompt: Item under review: NC(=O)CCS(=O)(=O)O . Reported pIC50?
Response: < 3.70

Prompt: Item under review: CN1C(=O)[C@@H]2N(N(C)C1=O)[C@@]1(Br)C(=O)NC(=O)[C@@]21Br . Reported pIC50?
Response: 3.83

Prompt: Item under review: O=C1CCC(=O)N1Cc1ccccc1N=[N+]([O-])c1ccccc1CN1C(=O)CCC1=O . Reported pIC50?
Response: < 3.70

Prompt: Item under review: COc1ccc(Br)c(CCCCCCCC(=O)O)c1 . Reported pIC50?
Response: < 4.00

###

- Test system: CEM cells HIV-1 protection, formazan growth assay
- assayProcedure: NCI AIDS Antiviral Assay
- reportedConditions: measured here: growth of uninfected CEM cells
Property: pIC50; scope: individual compounds
Keep in mind that pIC50 stands for -log10 of concentration in molar terms.

COc1ccc(N=Nc2ccc3oc(=O)c(C(=O)Nc4ccc(Cl)cc4)cc3c2)cc1 | 4.48

Prompt: Lab note: need pIC50 for O=c1c2c3c(sc2nc2n1N=CN(c1ccc(Cl)cc1)C2)CCCC3 on CEM cells HIV-1 protection, formazan growth assay, anyone have it?
Response: 4.42

Prompt: Lab note: need pIC50 for CCOc1cc2c(cc1O)C(O)C[C@@H]1[C@@H]2CC[C@]2(C)[C@@H](O)CC[C@@H]12 (stereo not given in full) on CEM cells HIV-1 protection, formazan growth assay, anyone have it?
Response: 7.11

Prompt: Lab note: need pIC50 for COC1OC2COC(C)(C)OC2C2OC(C)(C)OC12 (stereo not given) on CEM cells HIV-1 protection, formazan growth assay, anyone have it?
Response: 3.74
